- assay.explanation: in vitro
- condition.description: human, Caco-2, Caco-2 (cm/sec)
*1 amine or outer side, *2 acyl side, *3 side chain or, on linkers, in order; H or OH if unused. Where a SMILES comes first, the peptide text is derived from it. Bridges are numbered along the chain shown (N, C = ends). [ ]: non-standard residue; d: D form. The star is where a group is joined. NMePhe(3-Cl) = CN[C@@H](Cc1cccc(Cl)c1)C(=O)O; Tyr(3-F) = N[C@@H](Cc1ccc(O)c(F)c1)C(=O)O; Tyr(3-OMe) = COc1cc(C[C@H](N)C(=O)O)ccc1O; NMeW = CN[C@@H](Cc1c[nH]c2ccccc12)C(=O)O; NMehPhe = CN[C@@H](CCc1ccccc1)C(=O)O; hhPhe = N[C@@H](CCCc1ccccc1)C(=O)O; X6 = O=C([C@H](CCCCO)N[*:1])[*:2]; NMeF = CN[C@@H](Cc1ccccc1)C(=O)O; NMeL = CN[C@@H](CC(C)C)C(=O)O; NMeV = CN[C@H](C(=O)O)C(C)C; NMeAbu = CC[C@H](NC)C(=O)O; NMeA = CN[C@@H](C)C(=O)O; Piperidide = C1CCN(*)CC1; dAbu = CC[C@@H](N)C(=O)O; Sar = CNCC(=O)O; tBu = CC(C)(C)*
Binary call on Papp with cut-off 0.5 ×10⁻⁶ cm/s: strictly below means 1, and equality or higher means 0.

Given the entry CC[C@H]1NC(=O)C[C@@H](C(=O)N2CCCCC2)NC(=O)[C@H](CC(C)C)N(C)C(=O)[C@H](Cc2cccc(Cl)c2)N(C)C(=O)[C@H](CCCCO)NC(=O)[C@H](CC(C)C)N(C)C(=O)CN(C)C(=O)[C@H]([C@@H](C)O)NC(=O)[C@H](CC(C)C)N(C)C(=O)[C@H](CC(C)C)NC(=O)[C@H](CCc2ccccc2)N(C)C1=O [Compound B02] ([dAbu][NMehPhe]L[NMeL]T[Sar][NMeL][X6][NMePhe(3-Cl)][NMeL]D-Piperidide; lactam N-11) , would its reported Papp be below 0.5 ×10⁻⁶ cm/s?
1

Please state whether Papp is below 0.5 ×10⁻⁶ cm/s for CC(C)C[C@H]1C(=O)N[C@H](C(=O)N2CCCCC2)CC(=O)N(C)[C@@H](C)C(=O)N[C@@H](Cc2ccc(O)c(F)c2)C(=O)N(C)[C@@H](CC(C)C)C(=O)N(C)[C@@H](CC(C)C)C(=O)N[C@@H](C(C)C)C(=O)N(C)[C@@H](Cc2ccccc2)C(=O)N(C)[C@@H](CC(C)C)C(=O)N[C@@H]([C@@H](C)O)C(=O)N(C)CC(=O)N1C [pd122] ([NMeA][Tyr(3-F)][NMeL][NMeL]V[NMeF][NMeL]T[Sar][NMeL]D-Piperidide; lactam N-11)
1

Papp strictly < 0.5 ×10⁻⁶ cm/s for this molecule? CC[C@H]1C(=O)N[C@@H](Cc2ccc(O)c(OC)c2)C(=O)N(C)[C@@H](CC(C)C)C(=O)N(C)[C@@H](CC(C)C)C(=O)N[C@@H](C(C)C)C(=O)N(C)[C@@H](Cc2ccccc2)C(=O)N(C)[C@@H](CC(C)C)C(=O)N[C@@H]([C@@H](C)O)C(=O)N(C)CC(=O)N(C)[C@@H](CC(C)C)C(=O)N[C@H](C(=O)N2CCCCC2)CC(=O)N1C [Compound E06] ([NMeAbu][Tyr(3-OMe)][NMeL][NMeL]V[NMeF][NMeL]T[Sar][NMeL]D-Piperidide; lactam N-11)
0

State whether 0.5 ×10⁻⁶ cm/s exceeds Papp recorded for CC(C)C[C@@H]1NC(=O)[C@H](Cc2c[nH]c3ccccc23)N(C)C(=O)[C@@H](C(C)C)NC(=O)C[C@@H](C(=O)N2CCCCC2)NC(=O)[C@H](CC(C)C)N(C)C(=O)[C@H](CC(C)C)N(C)C(=O)[C@H](COC(C)(C)C)NC(=O)[C@H](CC(C)C)N(C)C(=O)CN(C)C(=O)[C@H]([C@@H](C)O)NC(=O)[C@H](CC(C)C)N(C)C1=O [pd106] ([dV][NMeW]L[NMeL]T[Sar][NMeL]S(tBu)[NMeL][NMeL]D-Piperidide; lactam N-11) .
1

Criterion: Papp strictly below 0.5 ×10⁻⁶ cm/s. Is it met by CC(C)C[C@H]1C(=O)N[C@@H](CCCc2ccccc2)C(=O)N(C)[C@@H](Cc2ccccc2)C(=O)N(C)[C@@H](C(C)C)C(=O)N[C@H](C(=O)N2CCCCC2)CC(=O)N[C@H](C)C(=O)N(C)[C@@H](Cc2ccccc2)C(=O)N[C@@H](C(C)C)C(=O)N(C)[C@@H](CC(C)C)C(=O)N[C@@H]([C@@H](C)O)C(=O)N(C)CC(=O)N1C [pd193] ([dA][NMeF]V[NMeL]T[Sar][NMeL][hhPhe][NMeF][NMeV]D-Piperidide; lactam N-11) ?
0

###

- assay.explanation: in vitro
- condition.description: human, Caco-2, Caco-2 (cm/sec)
Where a SMILES comes first, the peptide text is derived from it. Bridges are numbered along the chain shown (N, C = ends). [ ]: non-standard residue; d: D form. The star is where a group is joined. NMePhe(3-Cl) = CN[C@@H](Cc1cccc(Cl)c1)C(=O)O; NMeF = CN[C@@H](Cc1ccccc1)C(=O)O; Butyl(3-Me,3-OH) = CC(C)(O)CC*; NMeL = CN[C@@H](CC(C)C)C(=O)O; NMeV = CN[C@H](C(=O)O)C(C)C; Piperidide = C1CCN(*)CC1; Sar = CNCC(=O)O
readout.type: Papp (×10⁻⁶ cm/s)
Unit ×10⁻⁶ cm/s implied. Number only.

So what's the measured Papp for this one? CC(C)C[C@@H]1NC(=O)[C@H](Cc2ccccc2)N(C)C(=O)[C@@H](C(C)C)NC(=O)C[C@@H](C(=O)N2CCCCC2)NC(=O)[C@H](CC(C)C)N(C)C(=O)[C@H](Cc2cccc(Cl)c2)N(C)C(=O)[C@H](COCCC(C)(C)O)NC(=O)[C@H](CC(C)C)N(C)C(=O)CN(C)C(=O)[C@H]([C@@H](C)O)NC(=O)[C@H](C(C)C)N(C)C1=O [AP52] ([dV][NMeF]L[NMeV]T[Sar][NMeL]S(Butyl(3-Me,3-OH))[NMePhe(3-Cl)][NMeL]D-Piperidide; lactam N-11)
1.7

###

- assay.explanation: in vitro
- condition.description: human, Caco-2, Caco-2 (cm/sec)
*1 amine or outer side, *2 acyl side, *3 side chain or, on linkers, in order; H or OH if unused. Where a SMILES comes first, the peptide text is derived from it. Bridges are numbered along the chain shown (N, C = ends). [ ]: non-standard residue; d: D form. The star is where a group is joined. Phe(4-COOH) = N[C@@H](Cc1ccc(C(=O)O)cc1)C(=O)O; NMePhe(3-Cl) = CN[C@@H](Cc1cccc(Cl)c1)C(=O)O; X9 = O=C([C@@H](CN[*:1])COCCO)[*:2]; NMeF = CN[C@@H](Cc1ccccc1)C(=O)O; NMeL = CN[C@@H](CC(C)C)C(=O)O; Piperidide = C1CCN(*)CC1; NBuGly = CCCCNCC(=O)O; NPrGly = CCCNCC(=O)O; N(OH)Me = CN(O)*; Sar = CNCC(=O)O
readout.type: Papp (×10⁻⁶ cm/s)
Kindly provide the numeric value in ×10⁻⁶ cm/s only, without the unit symbol.

[[record]]
compound = "CC[C@H](C)[C@@H]1NC(=O)[C@H](CC(C)C)N(C)C(=O)CN(C)C(=O)C[C@@H](C(=O)N2CCCCC2)NC(=O)[C@H](CC(C)C)N(C)C(=O)[C@H](Cc2ccc(C(=O)N(C)O)cc2)NC(=O)[C@H](CC(C)C)N(C)C(=O)[C@H](Cc2cccc(Cl)c2)N(C)C(=O)CN(C)C(=O)[C@H]([C@@H](C)O)NC(=O)[C@H](CC(C)C)N(C)C1=O [AP255] ([Sar][NMeL]I[NMeL]T[Sar][NMePhe(3-Cl)][NMeL][Phe(4-COOH)](N(OH)Me)[NMeL]D-Piperidide; lactam N-11)"
readout_type = "Papp"
observed_measurement = 0.05


Note: attention shifts to another entry.
Find the recorded Papp belonging to CCCCN1CC(=O)N(C)[C@@H](Cc2ccccc2)C(=O)N[C@@H]([C@@H](C)CC)C(=O)N(C)[C@@H](CC(C)C)C(=O)N[C@@H]([C@@H](C)O)C(=O)N(CCC)CC(=O)N(C)[C@@H](Cc2ccccc2)C(=O)N(C)[C@@H](CC(C)C)C(=O)NC[C@@H](COCCO)C(=O)N(C)[C@@H](CC(C)C)C(=O)N[C@H](C(=O)N2CCCCC2)CC1=O [AP134] ([NBuGly][NMeF]I[NMeL]T[NPrGly][NMeF][NMeL][X9][NMeL]D-Piperidide; lactam N-11) and report it.
0.62

Each recorded value in this set is attributed to patent US20230096766A1.
